Where these numbers come from: paper PMC6522912

biological target: E. coli MurD (Escherichia coli, UniProt P14900); assay: biochemical; settings: 0.25 h, Table S1, PKIS screening; read-out: RA [%] at 100 µM MurD
Sequence (P14900 whole entry): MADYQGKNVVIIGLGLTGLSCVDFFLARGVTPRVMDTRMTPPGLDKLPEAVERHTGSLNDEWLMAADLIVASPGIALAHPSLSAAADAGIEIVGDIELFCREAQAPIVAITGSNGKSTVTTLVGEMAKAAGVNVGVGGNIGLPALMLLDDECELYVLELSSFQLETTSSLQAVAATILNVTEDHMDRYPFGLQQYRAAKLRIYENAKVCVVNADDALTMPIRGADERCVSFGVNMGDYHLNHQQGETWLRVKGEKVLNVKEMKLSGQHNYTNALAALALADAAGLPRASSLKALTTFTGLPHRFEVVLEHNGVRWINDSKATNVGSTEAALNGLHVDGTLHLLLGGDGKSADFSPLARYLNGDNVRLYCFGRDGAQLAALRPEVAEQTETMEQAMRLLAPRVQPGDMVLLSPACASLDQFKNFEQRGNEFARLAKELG
Entries and their remaining activity at 100 µM values follow.

# query: remaining activity at 100 µM | item COC(=O)c1sc(-n2cnc3cc(OC)c(OC)cc32)cc1OCc1ccccc1C(F)(F)F [GSK1030058A] | system: E. coli MurD (Escherichia coli, UniProt P14900)
78%

How about this compound: COc1cc(N2CCN(C(C)C)CC2)ccc1Nc1nc(Nc2cccc(F)c2C(=O)O)c2cc[nH]c2n1 [GSK1819799A]
37%

How about this compound: CS(=O)(=O)CCNCc1cc(-c2cc3c(Nc4ccc(OCc5cccc(F)c5)c(Cl)c4)ncnc3s2)cs1 [GSK300014A]
91%

How about this compound: [O-][S+]1CCN(Cc2ccc(-c3ccc4ncnc(Nc5ccc(OCc6cccc(F)c6)c(Cl)c5)c4c3)o2)CC1 [GW576609A]
54%

How about this compound: COc1ccc(-c2ccncc2)cc1C(N)=O [GSK605714A]
91%
